Assayed System: Phospholipase A2, membrane associated (Homo sapiens)
Method: Compound was evaluated for inhibition of phospholipase A2 (PLA2) isolated from human platelets at a concentration of 10 uM
Measured Attribute: inhibition (%)

Observe how each entry below is paired with its result.
O=C(O)c1ccccc1-c1ccccc1C(=O)Nc1ccc2ccccc2c1
2
CCCCCCCCCCOc1ccc(NC(=O)c2ccccc2-c2ccccc2C(=O)O)cc1OCC(=O)O
2
O=C(O)c1ccccc1-c1ccccc1C(=O)NCCc1c[nH]c2ccc(O)cc12
0

a. CCCCCCCCCCOc1ccc(NC(=O)c2ccccc2-c2ccccc2C(=O)O)cc1OCCCCCCCCCC
b. CC(C)c1ccc2c(c1)CC[C@H]1C[C@](C)(CNC(=O)c3ccccc3-c3ccccc3C(=O)O)CC[C@]21C
Name the one with the greater inhibition value, either a or b as given. Give the label under which the chosen entry appears.
a
(a: 85%, b: 6%)
